- TARGET_UNDER_TEST: T1, UBXD1-PUB (150–264) Y194A (UniProt Q9BZV1 150-264, Y194A)
- T1 construct: UBXD1 PUB domain construct, residues 150-264, point mutant; source: E. coli Rosetta2, purified (Ni-NTA, thrombin cleavage of the tag, SEC); not shown: His6, N-terminal, cleaved
- T1 sequence (looked up): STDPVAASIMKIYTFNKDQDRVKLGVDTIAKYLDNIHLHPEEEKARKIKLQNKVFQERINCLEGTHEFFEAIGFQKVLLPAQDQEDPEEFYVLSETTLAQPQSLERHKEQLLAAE
- EXPERIMENT_SUMMARY: fluorescence polarisation; fluorescence anisotropy; PUB constructs titrated to 100 nM 5,6-FAM labeled p97-C10 peptide; 50 mM NaKPi pH 6.5, 25 °C; triplicate; one-site quadratic fit
- PARTICULARS: both partners purified
No end group written: not given here.
ENDPOINT_NAME: pKd
// pKd: -log10(molar conc.)

Request: I would be grateful if you could share the reported pKd for TEDNDDDLYG (also: 5,6-FAM label, position not given here, source: synthetic peptide, bought: Caslo ApS (Denmark)) [5,6-FAM-labeled p97-C10 peptide] .
Result: 4.28
